Every entry's value here was drawn from the supplement of paper PMC9112550.

Test system: Escherichia coli TOP10
Assay: shrunken log2 fold change of peptide-encoding DNA abundance (4.5 h post-induction vs induction); higher = less antimicrobial activity (less host growth inhibition)
Details: time post-induction: 4.5 h; library: site-saturation at positions 5, 18, 19, 20
The threshold is inclusive: shrunken log2 fold change of exactly -0.02 counts as criterion met; values below receive criterion not met.

RRIRFRPPRLPRPRPRPGNSPRP : criterion met
RRIRDRPPRLPRPRPRPQQTPRP : criterion not met
RRIRHRPPRLPRPRPRPAPLPRP : criterion met
RRIRQRPPRLPRPRPRPTNPPRP : criterion not met

Threshold query (shrunken log2 fold change >= -0.02) on RRIRERPPRLPRPRPRPHFLPRP
criterion not met

Threshold query (shrunken log2 fold change >= -0.02) on RRIRNRPPRLPRPRPRPISLPRP
criterion not met

Threshold query (shrunken log2 fold change >= -0.02) on RRIRGRPPRLPRPRPRPLPMPRP
criterion met

###

Documented shrunken log2 fold change across a set of sequences
System: Escherichia coli TOP10
Assay: shrunken log2 fold change of peptide-encoding DNA abundance (4.5 h post-induction vs induction); higher = less antimicrobial activity (less host growth inhibition)
Settings: time post-induction: 4.5 h; library: site-saturation at positions 5, 18, 19, 20

# count of solved cases: 6
RRIRCRPPRLPRPRPRPGAPPRP : 0.734
RRIRKRPPRLPRPRPRPDRSPRP : -0.231
RRIRVRPPRLPRPRPRPSAIPRP : -0.258
RRIRFRPPRLPRPRPRPGLKPRP : 0.0731
RRIRLRPPRLPRPRPRPLCVPRP : 0.688
RRIRVRPPRLPRPRPRPQCWPRP : 0.198

// moving on: another record for shrunken log2 fold change
Name the reported shrunken log2 fold change value associated with the sequence RRIRQRPPRLPRPRPRPMLEPRP
0.0533

###

Test system: Escherichia coli TOP10
Assay: shrunken log2 fold change of peptide-encoding DNA abundance (4.5 h post-induction vs induction); higher = less antimicrobial activity (less host growth inhibition)
Conditions: time post-induction: 4.5 h; library: site-saturation at positions 5, 18, 19, 20
The threshold is inclusive: shrunken log2 fold change of exactly -0.2 counts as t; values below receive f.

Solved entries (count: 3):
RRIRERPPRLPRPRPRPCPSPRP : t
RRIRLRPPRLPRPRPRPPQVPRP : t
RRIRVRPPRLPRPRPRPEHEPRP : t

Threshold query (shrunken log2 fold change >= -0.2) on RRIRQRPPRLPRPRPRPGQTPRP
t

Threshold query (shrunken log2 fold change >= -0.2) on RRIRIRPPRLPRPRPRPITVPRP
f

Threshold query (shrunken log2 fold change >= -0.2) on RRIRPRPPRLPRPRPRPIWKPRP
t

###

Test system: Escherichia coli TOP10
Assay: shrunken log2 fold change of peptide-encoding DNA abundance (4.5 h post-induction vs induction); higher = less antimicrobial activity (less host growth inhibition)
Conditions: time post-induction: 4.5 h; library: site-saturation at positions 5, 18, 19, 20
value.kind: shrunken log2 fold change
Answer field: number only, no words.

# count of solved cases: 5
RRIRLRPPRLPRPRPRPHYHPRP : -1.26
RRIRDRPPRLPRPRPRPTMGPRP : 1.05
RRIRFRPPRLPRPRPRPLHDPRP : -0.107
RRIRERPPRLPRPRPRPLEHPRP : -0.277
RRIRQRPPRLPRPRPRPNQHPRP : 0.0696

Query shrunken log2 fold change on Escherichia coli TOP10 for RRIRCRPPRLPRPRPRPGSLPRP
0.0481

Query shrunken log2 fold change on Escherichia coli TOP10 for RRIRDRPPRLPRPRPRPGIMPRP
0.0786

Query shrunken log2 fold change on Escherichia coli TOP10 for RRIRCRPPRLPRPRPRPHGFPRP
-0.0942

###

Tested on: Escherichia coli TOP10
Experiment: shrunken log2 fold change of peptide-encoding DNA abundance (4.5 h post-induction vs induction); higher = less antimicrobial activity (less host growth inhibition)
Conditions: time post-induction: 4.5 h; library: site-saturation at positions 5, 18, 19, 20
Documented shrunken log2 fold change across a set of sequences
Answer field: number only, no words.

RRIRNRPPRLPRPRPRPNHLPRP : -0.317
RRIRKRPPRLPRPRPRPWVAPRP : 0.282
RRIRKRPPRLPRPRPRPQSYPRP : 0.04
RRIRQRPPRLPRPRPRPLIYPRP : -0.457
RRIRWRPPRLPRPRPRPQCGPRP : -0.0434
RRIRSRPPRLPRPRPRPCSSPRP : -0.134

Name the reported shrunken log2 fold change value associated with the sequence RRIRVRPPRLPRPRPRPEMQPRP
0.175

Name the reported shrunken log2 fold change value associated with the sequence RRIRFRPPRLPRPRPRPYTGPRP
-0.0357

Name the reported shrunken log2 fold change value associated with the sequence RRIRTRPPRLPRPRPRPTKYPRP
-0.612

Name the reported shrunken log2 fold change value associated with the sequence RRIRKRPPRLPRPRPRPVIPPRP
-0.26

Name the reported shrunken log2 fold change value associated with the sequence RRIRPRPPRLPRPRPRPHHRPRP
-0.118

Name the reported shrunken log2 fold change value associated with the sequence RRIRPRPPRLPRPRPRPLWTPRP
0.0798

Name the reported shrunken log2 fold change value associated with the sequence RRIRTRPPRLPRPRPRPLLAPRP
0.282

Name the reported shrunken log2 fold change value associated with the sequence RRIRARPPRLPRPRPRPTDFPRP
-0.000766

Name the reported shrunken log2 fold change value associated with the sequence RRIRNRPPRLPRPRPRPKTFPRP
-0.399

###

Tested on: Escherichia coli TOP10
Assay: shrunken log2 fold change of peptide-encoding DNA abundance (4.5 h post-induction vs induction); higher = less antimicrobial activity (less host growth inhibition)
Conditions: time post-induction: 4.5 h; library: site-saturation at positions 5, 18, 19, 20
The threshold is inclusive: shrunken log2 fold change of exactly 0.05 counts as Y; values below receive N.

Solved entries (count: 5):
RRIRRRPPRLPRPRPRPDVHPRP : N
RRIRVRPPRLPRPRPRPCWHPRP : N
RRIRPRPPRLPRPRPRPAQLPRP : Y
RRIRIRPPRLPRPRPRPHSPPRP : N
RRIRERPPRLPRPRPRPLCEPRP : N

Threshold query (shrunken log2 fold change >= 0.05) on RRIRWRPPRLPRPRPRPPAIPRP
Y

Threshold query (shrunken log2 fold change >= 0.05) on RRIRGRPPRLPRPRPRPGNFPRP
N

Threshold query (shrunken log2 fold change >= 0.05) on RRIRARPPRLPRPRPRPYRRPRP
N

###

Test system: Escherichia coli TOP10
Test: shrunken log2 fold change of peptide-encoding DNA abundance (4.5 h post-induction vs induction); higher = less antimicrobial activity (less host growth inhibition)
Settings: time post-induction: 4.5 h; library: site-saturation at positions 5, 18, 19, 20
The threshold is inclusive: shrunken log2 fold change of exactly 0.1 counts as Satisfied; values below receive Not satisfied.

Solved entries (count: 6):
RRIRERPPRLPRPRPRPTSYPRP : Not satisfied
RRIRVRPPRLPRPRPRPGAPPRP : Satisfied
RRIRIRPPRLPRPRPRPRRTPRP : Not satisfied
RRIRIRPPRLPRPRPRPYKMPRP : Not satisfied
RRIRNRPPRLPRPRPRPEILPRP : Not satisfied
RRIRLRPPRLPRPRPRPKDKPRP : Satisfied

Threshold query (shrunken log2 fold change >= 0.1) on RRIRYRPPRLPRPRPRPSVKPRP
Not satisfied

Threshold query (shrunken log2 fold change >= 0.1) on RRIRMRPPRLPRPRPRPGPFPRP
Satisfied

Threshold query (shrunken log2 fold change >= 0.1) on RRIRVRPPRLPRPRPRPMTMPRP
Not satisfied

Threshold query (shrunken log2 fold change >= 0.1) on RRIRIRPPRLPRPRPRPPDPPRP
Satisfied

Threshold query (shrunken log2 fold change >= 0.1) on RRIRHRPPRLPRPRPRPHSPPRP
Not satisfied

Threshold query (shrunken log2 fold change >= 0.1) on RRIRQRPPRLPRPRPRPLQGPRP
Not satisfied

Threshold query (shrunken log2 fold change >= 0.1) on RRIRQRPPRLPRPRPRPIFPPRP
Satisfied

Threshold query (shrunken log2 fold change >= 0.1) on RRIRERPPRLPRPRPRPCDGPRP
Satisfied

Threshold query (shrunken log2 fold change >= 0.1) on RRIRWRPPRLPRPRPRPPAEPRP
Satisfied

Threshold query (shrunken log2 fold change >= 0.1) on RRIRCRPPRLPRPRPRPAWDPRP
Satisfied

Threshold query (shrunken log2 fold change >= 0.1) on RRIRIRPPRLPRPRPRPTCIPRP
Not satisfied

Threshold query (shrunken log2 fold change >= 0.1) on RRIRGRPPRLPRPRPRPPVSPRP
Satisfied

###

Test system: Escherichia coli TOP10;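 also: peptides expressed intracellularly from a pBAD plasmid library in pooled LB shake-flask culture, induced with 0.3% L-arabinose, DNA abundance read by NGS, three biological replicates, DESeq2 with apeglm shrinkage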
Test: shrunken log2 fold change of peptide-encoding DNA abundance (4.5 h post-induction vs induction); higher = less antimicrobial activity (less host growth inhibition)
Settings: time post-induction: 4.5 h; library: site-saturation at positions 5, 18, 19, 20
Documented shrunken log2 fold change across a set of sequences
Answer field: number only, no words.

# count of solved cases: 6
RRIRQRPPRLPRPRPRPPKGPRP : 0.021
RRIRMRPPRLPRPRPRPPIQPRP : 0.693
RRIRFRPPRLPRPRPRPFGDPRP : -0.19
RRIRDRPPRLPRPRPRPIELPRP : 0.0698
RRIRIRPPRLPRPRPRPGPGPRP : 0.385
RRIRMRPPRLPRPRPRPWDHPRP : 0.0477

Name the reported shrunken log2 fold change value associated with the sequence RRIRCRPPRLPRPRPRPNGKPRP
-0.8

Name the reported shrunken log2 fold change value associated with the sequence RRIRCRPPRLPRPRPRPSYDPRP
-0.428
